Target: recombinant human MAO-A (monoamine oxidase-A) (Homo sapiens, UniProt P21397)
Construct: purchased Sigma-Aldrich
Sequence (P21397 whole entry): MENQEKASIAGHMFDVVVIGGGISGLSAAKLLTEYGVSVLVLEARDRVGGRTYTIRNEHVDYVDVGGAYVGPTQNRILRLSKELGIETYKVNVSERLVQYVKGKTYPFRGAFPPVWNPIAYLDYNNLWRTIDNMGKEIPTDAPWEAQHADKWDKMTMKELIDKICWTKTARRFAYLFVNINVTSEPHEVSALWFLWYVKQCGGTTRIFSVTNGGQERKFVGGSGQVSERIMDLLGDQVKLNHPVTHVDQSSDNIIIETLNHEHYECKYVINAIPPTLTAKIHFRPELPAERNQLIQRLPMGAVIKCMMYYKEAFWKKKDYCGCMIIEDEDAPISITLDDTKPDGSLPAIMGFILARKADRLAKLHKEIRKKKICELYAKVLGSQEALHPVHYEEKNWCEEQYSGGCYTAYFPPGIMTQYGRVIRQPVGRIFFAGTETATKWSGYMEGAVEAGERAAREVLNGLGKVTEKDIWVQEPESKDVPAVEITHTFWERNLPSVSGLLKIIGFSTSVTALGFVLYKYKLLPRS
Test: Activity on recombinant human MAO-A, method similar to the VAP-1 assay
Format: biochemical
Conditions: substrate 0.5 mM tyramine; read-out: Inhibitory Activity (IC50, nM) MAO-A
Where a name gives a salt, the structure may show the parent alone.
Attribute measured: IC50

Look over these answered cases.
Compound: NC/C(=C\F)Cn1ncn(Cc2ccc(-c3ccncc3)s2)c1=O [Example 160]
Target under test: recombinant human MAO-A (monoamine oxidase-A) (Homo sapiens, UniProt P21397)
Attribute measured: IC50
Data value: > 100000 nM
--
Compound: CN(C)c1ccc(-c2ccc(CCn3cnn(C/C(=C/F)CN)c3=O)s2)cn1 [Example 220]
Target under test: recombinant human MAO-A (monoamine oxidase-A) (Homo sapiens, UniProt P21397)
Attribute measured: IC50
Data value: > 100000 nM
--
Compound: NC/C(=C\F)Cn1ncn(Cc2ccc(-c3ccc4c(c3)CCCN4)s2)c1=O [Example 110, hydrochloride]
Target under test: recombinant human MAO-A (monoamine oxidase-A) (Homo sapiens, UniProt P21397)
Attribute measured: IC50
Data value: 32000 nM
--
Compound: NC/C(=C\F)Cn1ncn(Cc2ccc(-c3ccc(-c4noc(=O)[nH]4)cc3)s2)c1=O [Example 144]
Target under test: recombinant human MAO-A (monoamine oxidase-A) (Homo sapiens, UniProt P21397)
Attribute measured: IC50
Data value: > 100000 nM
--
Compound: NC/C(=C\F)Cn1ncn(Cc2ccc(-c3ccc(F)c(F)c3)s2)c1=O [Example 14, hydrochloride]
Target under test: recombinant human MAO-A (monoamine oxidase-A) (Homo sapiens, UniProt P21397)
Attribute measured: IC50
Data value: > 100000 nM
--
Compound: CCn1cc(-c2ccc(CCn3cnn(C/C(=C/F)CN)c3=O)s2)cn1 [Example 222]
Target under test: recombinant human MAO-A (monoamine oxidase-A) (Homo sapiens, UniProt P21397)
Attribute measured: IC50
Data value: > 100000 nM

INPUT: Quick one: IC50 of CCOc1ncc(-c2ccc(Cn3cnn(C/C(=C/F)CN)c3=O)s2)cn1 [Example 179] ?
OUTPUT: > 100000 nM

INPUT: Value lookup for IC50; key = NC/C(=C\F)Cn1ncn(Cc2ccc(-c3cccc(-c4nnc[nH]4)c3)s2)c1=O [Example 33]
OUTPUT: > 100000 nM

INPUT: Would you kindly share the measured IC50 for COc1ccc(C#Cc2ccc(Cn3cnn(C/C(=C/F)CN)c3=O)s2)cc1 [Example 126, hydrochloride] ?
OUTPUT: 57000 nM

INPUT: Which value of IC50 has been reported for NC/C(=C\F)Cn1ncn(Cc2ccc(-c3ccc(-c4ccon4)cc3)s2)c1=O [Example 40, hydrochloride] in the records?
OUTPUT: > 100000 nM
